Tested on: RPMI-8226
ASSAY NOTES: NCI tumour cell line growth inhibition, 48 h
Active and inactive are the calls of the source. Cut-off read from the data, not from the text of the source: active = GI50 up to about 1.1 µM and inactive = higher.
Outcome (select one): active, inactive

Completed entries (count: 5):
molecule=CC(=O)O[C@H]1C(=O)[C@@]2(C)[C@H]([C@H](OC(=O)c3ccccc3)[C@@]3(O)C[C@H](O)C(C)=C1C3(C)C)[C@]1(OC(C)=O)CO[C@@H]1C[C@@H]2O discrete_label=inactive
molecule="C=C1CC(Cn2cc(Br)c(=O)[nH]c2=O)(c2ccc(Br)cc2)OC1=O (stereo unspecified)" discrete_label=active
molecule=O=[N+]([O-])C(=C1c2ccccc2-c2ccccc21)[N+](=O)[O-] discrete_label=inactive
molecule=O=c1cc(NNc2ccccc2)[nH]c(=S)[nH]1 discrete_label=inactive
molecule=O=C1/C(=C/c2ccc(O)cc2)CCc2ccccc21 discrete_label=inactive

Proceed to the following item.
Problem: Could you kindly confirm the outcome this assay logged for COC(=O)c1c2c(cc3c1CC1(Cc4ccccc4C1=O)C3)CCC2 (stereo unspecified) ?
Result: inactive

* * *

Test system: HL-60
ASSAY NOTES: NCI tumour cell line growth inhibition, 48 h
Calls of active or inactive are those of the source. Cut-off read from the data, not from the text of the source: active = GI50 up to about 1.1 µM and inactive = higher.
For each record, write down the corresponding GI50.

compound=Cc1[nH]c2ccccc2c1/C=N/c1ccc(/N=C/c2c(C)[nH]c3ccccc23)cc1 measured_parameter=GI50 measured_result="14.7 µM (inactive)"

Give one value of GI50 per listed compound.
1. O=C(Cc1ccccc1)N/N=C(/c1nc2ccc([N+](=O)[O-])cc2nc1O)C(O)c1ccc(C(O)/C(=N/NC(=O)Cc2ccccc2)c2nc3ccc([N+](=O)[O-])cc3nc2O)cc1 (centres undefined)
2. C=C(C(=C)P(=S)(C(C)C)C(C)C)P(=S)(C(C)C)C(C)C
3. Cc1nc2ccc(S(=O)(=O)Nc3ccccc3)cc2c(=O)n1NC(=O)CNc1ccccc1

Result:
7.01 µM (inactive)
> 100 µM (inactive)
> 100 µM (inactive)

* * *

System: NCI-H522
ASSAY NOTES: NCI tumour cell line growth inhibition, 48 h
Activity calls are given as the source filed them. No stated cut-off is given here; in the data, active = GI50 up to about 1.1 µM and inactive = higher.
A correct response names exactly one class from 1 for active, 0 for inactive

// known answers, use as guide
compound=N=c1sc2ccccc2n1CC[S-].c1ccc2c(c1)sc1[n+]2CCS1 discrete_label=0
compound=CC(C)c1ccccc1NC(=O)CCc1n[nH]c(=S)o1 discrete_label=0
compound=Cc1ccc([N+](=O)[O-])cc1NC(=O)/C(CC(=O)c1sc(C(N)=S)nc1C)=N\N discrete_label=0
compound=Cc1ccc(S(=O)(=O)NNC(=O)Nc2ccc(Cl)cc2)cc1 discrete_label=0
compound=O=C1c2ccccc2-c2nnc3c(c21)-c1ccccc1C3 discrete_label=0
compound="c1ccc(P(CCP(CCP(c2ccccc2)c2ccccc2)c2ccccc2)CCP(c2ccccc2)c2ccccc2)cc1 (stereo unspecified)" discrete_label=0

Problem: Called result for "O=C(CCNC(=O)OCc1ccccc1)OCCCNC(=O)OCc1ccccc1"
Result: 0

Problem: Identify the outcome logged in this assay for the compound shown: COC1C=COC2(C)Oc3c(C)c(O)c4c(O)c(c(C5SCCS5)c(O)c4c3C2=O)NC(=O)/C(C)=C\C=CC(C)C(O)C(C)C(O)C(C)C(OC(C)=O)C1C (stereo unspecified)
Result: 0

Problem: Returns: the outcome recorded for "CS(=O)(=O)Oc1cccc(/C=N/N=C(\N)NO)c1" in this assay.
Result: 0

Problem: State the result this test recorded for "O=C1/C(=C2\Sc3c(ccc(Cl)c3Cl)C2=O)Sc2c1ccc(Cl)c2Cl" .
Result: 0

Problem: How did this test come out for Cc1ccc(S(=O)(=O)NC(CCC(=O)NNc2ccccc2)C(=O)NNc2ccccc2)cc1 (stereo unspecified) ?
Result: 0

Problem: Identify the outcome logged in this assay for the compound shown: "Nc1nc2cc3nc(N)c(N)nc3cc2nc1N"
Result: 0

Problem: So what was the verdict on CCCNCCCCC(NC(C)=O)C(=O)NCc1ccccc1 (stereo unspecified) in this test?
Result: 0

Problem: GET /call?item= "CN(Cc1cccc2ccsc12)/N=C\c1ccc(Cl)cc1" returns the recorded outcome of this test.
Result: 0

Problem: In this assay, the call recorded for "CCOP(=O)(OCC)/C(C#N)=C/c1[nH]cnc1C" was what?
Result: 0

* * *

Test system: MDA-MB-231
ASSAY NOTES: NCI tumour cell line growth inhibition, 48 h
Active and inactive are the calls of the source. No stated cut-off is given here; in the data, active = GI50 up to about 1.1 µM and inactive = higher. *1 amine or outer side, *2 acyl side, *3 side chain or, on linkers, in order; H or OH if unused. Where a SMILES comes first, the peptide text is derived from it. [ ]: non-standard residue; d: D form. The star is where a group is joined. ξ: configuration not given here. X53 = CC(C)C[C@H](N[*:1])C1=N[C@H](C(=O)[*:2])CS1; Ile(3ξ) = CCC(C)[C@H](N)C(=O)O; Allyl(1,1-Me2) = C=CC(C)(C)*
Thanks in advance; please answer with one of these: active, inactive

compound="CC(C)N1CCN(c2ccc(OCC3COC(Cn4cncn4)(c4ccc(Cl)cc4Cl)O3)cc2)CC1 (centres undefined) [TERCONAZOLE]" assayed_system=MDA-MB-231 discrete_label=inactive

Problem: Short answer needed: outcome of this test for C=CC(C)(C)OC[C@@H]1NC(=O)CNC(=O)[C@@H]2CCCN2C(=O)[C@H](C(C)CC)NC(=O)[C@@H]2CSC(=N2)[C@H](CC(C)C)NC1=O (some centres undefined) (cyclo(GS(Allyl(1,1-Me2))[X53][Ile(3ξ)]P)) ?
Result: inactive

Problem: For "O=C(CCNC(=O)OCc1ccccc1)OCCCNC(=O)OCc1ccccc1" , which call appears in the assay record?
Result: inactive

Problem: Test call, this compound: "COc1cc(/C=C/C(=O)C2(C(=O)/C=C/c3cc(OC)c(OC)c(OC)c3)CCCCC2)cc(OC)c1OC"
Result: inactive

Problem: Dear colleague, could you share the recorded outcome for "O=[N+]([O-])/C(C(Cl)=C(Cl)Cl)=C(\Nc1ccccc1)n1nnc2ccccc21" when you have a moment?
Result: inactive

Problem: Would you mind telling me which call this test gave Cc1nc2c(o1)C(=O)c1ccccc1/C2=N/C1CCCCC1N (centres undefined) ?
Result: active

Problem: Just curious, what result did CNc1ncnc2c1cnn2Cc1cn(COCC(O)CO)nn1 (centres undefined) get here?
Result: inactive

Problem: Which outcome was entered for the compound "CCN(C(=S)N[C@H](C(=O)N[C@@H](C)C(=O)OC)C(C)C)c1ccccc1" in this test?
Result: inactive

Problem: Dear all, I need the recorded test outcome for "C[C@H](N[C@H]1CCC[C@]1(O)C#Cc1ccc2c(c1)OCO2)c1ccccc1" , thank you.
Result: inactive

* * *

Give GI50 for every item shown.
Tested on: DU-145
ASSAY NOTES: NCI tumour cell line growth inhibition, 48 h
Activity calls are given as the source filed them. No stated cut-off is given here; in the data, active = GI50 up to about 1.1 µM and inactive = higher.

Worked examples, 5 compounds total:
compound=CCON1CC(C(=O)OC)=C(O)C1=O measured_result="> 100 µM (inactive)"
compound=C(=N\Nc1ccc(-c2nc3ccccc3[nH]2)cc1)/c1c(-c2ccc(Cc3ccccc3)cc2)[nH]c2ccccc12 measured_result="16.8 µM (inactive)"
compound=COc1cc(/C=C/c2nc(NC(=S)Nc3ccccc3)nnc2C)cc(OC)c1OC measured_result="34 µM (inactive)"
compound="Nc1nc(=O)n(C2CC(O)C(CO)O2)c2nc(-c3ccc(-c4ccccc4)cc3)cnc12 (stereo unspecified)" measured_result="> 100 µM (inactive)"
compound=COC(=O)Cc1c(/C=C/C(C)(C)n2cnc(CCN3C(=O)CCC3=O)c2)[nH]c2ccccc12 measured_result="> 100 µM (inactive)"

# input for lookup
Problem: So what does the record say about GI50 for Cc1nc2ccc(NC3OC(CO)C(O)C(O)C3O)cc2c(=O)n1-c1ccccc1 (stereo unspecified) ?
Result: > 100 µM (inactive)

* * *

Test system: MDA-MB-435
ASSAY NOTES: NCI tumour cell line growth inhibition, 48 h
The source made the active and inactive calls. No stated cut-off is given here; in the data, active = GI50 up to about 1.1 µM and inactive = higher. Where a SMILES comes first, the peptide text is derived from it. The star is where a group is joined. Cbz = O=C(OCc1ccccc1)*
MEASURED PARAMETER: GI50

Below is a list of compounds. For each, state its recorded GI50.
1. Cc1ccc(S(=O)(=O)NNC(=O)Nc2ccc(Cl)cc2)cc1
2. COc1ccc(C(=O)/C=C/c2ccc(OCC(=O)O)cc2)cc1
3. Nc1nc2cc3nc(N)c(N)nc3cc2nc1N
4. COC(=O)C(CC(C)C)NC(=O)C(CCCNC(=N)N)NC(=O)OCc1ccccc1 (stereo not drawn) (Cbz-Arg-Leu-OMe; configuration not given here)
5. O=C(O)Cc1ccc([N+](=O)[O-])cc1[N+](=O)[O-]
6. Cc1cc(OCc2nnc3n2S(=O)(=O)c2ccccc2N3C)ccc1Cl
7. CNc1ncnc2c1cnn2Cc1cn(COCC(O)CO)nn1 (stereo not given)
8. COc1cc(/C=C/C(=O)C2(C(=O)/C=C/c3cc(OC)c(OC)c(OC)c3)CCCCC2)cc(OC)c1OC

Result:
> 100 µM (inactive)
32.8 µM (inactive)
> 100 µM (inactive)
> 100 µM (inactive)
> 100 µM (inactive)
> 100 µM (inactive)
> 100 µM (inactive)
21.5 µM (inactive)

State the recorded GI50 for every item in the following list.
1. COC(=O)Cc1c(/C=C/C(C)(C)n2cnc(CCN3C(=O)CCC3=O)c2)[nH]c2ccccc12
2. CC1=NN(c2nc(N)nc(CO)n2)C(C)(C)C1

Result:
["> 100 µM (inactive)", "> 100 µM (inactive)"]
